Values compiled from ChEMBL document CHEMBL4321857.

Parameter pIC50: see the listing below.
# measured-on: C-C chemokine receptor type 5 (Homo sapiens)
# Sequence (P51681 whole entry): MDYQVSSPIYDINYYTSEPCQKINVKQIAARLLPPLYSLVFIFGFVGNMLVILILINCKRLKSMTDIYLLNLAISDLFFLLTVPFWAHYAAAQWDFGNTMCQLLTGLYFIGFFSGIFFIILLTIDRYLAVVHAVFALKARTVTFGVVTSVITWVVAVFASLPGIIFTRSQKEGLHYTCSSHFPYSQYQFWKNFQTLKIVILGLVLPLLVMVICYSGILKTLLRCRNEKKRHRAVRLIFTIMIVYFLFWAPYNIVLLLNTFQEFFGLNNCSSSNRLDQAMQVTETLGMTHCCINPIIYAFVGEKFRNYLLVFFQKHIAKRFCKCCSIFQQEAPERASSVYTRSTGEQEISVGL
# procedure-text: Antagonist activity at human TEV cleavage site-linked CCR5 expressed in human U2OS cells harboring beta-lactamase reporter gene assessed as inhibition of CCL3-induced beta-arrestin recruitment incubated for 30 mins followed by CCL3 stimulation and measured after 16 hrs by Tango assay
# Format: cell-based
# applied-conditions: read-out: IC50
In textbook form, pIC50 equals minus log to base ten of the concentration in mol/L.

| smiles-code | reported-metric | test-result |
| --- | --- | --- |
| CC(=O)C1=C(O)C(=O)N(c2ccc(Cl)cc2F)[C@@H]1C1CCCCC1 | pIC50 | 6.15 |

For the next question, use this compound.
Just so you know, measured pIC50 for `Cc1ccc(-c2ccc3c(c2)C=C(C(=O)Nc2ccc(C[N+](C)(C)C4CCOCC4)cc2)CCC3)cc1` came out at 8.22

====

# measured-on: C-C chemokine receptor type 5 (Homo sapiens)
# procedure-text: Antagonist activity at human TEV cleavage site-linked CCR5 expressed in human U2OS cells harboring beta-lactamase reporter gene assessed as inhibition of CCL3-induced beta-arrestin recruitment incubated for 30 mins followed by CCL3 stimulation and measured after 16 hrs by Tango assay
# Format: cell-based
# applied-conditions: read-out: pIC50 (converted)
Parameter IC50: see the listing below.

Take a look at these entries with their results.
| smiles-code | reported-metric | test-result |
| --- | --- | --- |
| Nc1nc2[nH]c(C3CC3)c(Cc3cccc(Cl)c3)c(=O)n2n1 | IC50 | 575 nM |
| Nc1nc2[nH]c(C3CCCC3)c(Cc3cccc(Cl)c3)c(=O)n2n1 | IC50 | 372 nM |

For the next question, use this molecule.
Just so you know, measured IC50 for `CC(C)c1[nH]c2nc(N)nn2c(=O)c1Cc1cc(Cl)cc(Cl)c1` came out at 324 nM
